- procedureSummary: Cmax in mouse brain at 5 mg/kg,iv administration
- Type: ADME, organism-based
property: Cmax (ng/g)

A: Cc1ccc(C[C@@H](C(=O)N2CC(C#N)C2)n2c(=N)n(C(C)c3ccc(C)cc3)c3cccnc32)cc1 (stereo not given in full)
B: COCOC[C@H](Cc1ccc(C)cc1)n1c(=N)n(C(C)c2ccc(C)cc2)c2cccnc21 (stereo in doubt; 62c)
C: COC[C@H](Cc1ccc(C)cc1)n1c(=N)n(C(c2ccc(C)cc2)C2CC2)c2ccccc21 (stereo in doubt; 61b)
D: Cc1ccc(C[C@@H](CNC(=O)CO)n2c(=N)n(C(C)c3ccc(C)cc3)c3ccccc32)cc1 (stereo in doubt; 65c)
E: Cc1ccc(C[C@@H](C(=O)N2CC(C#N)C2)n2c(=N)n(C(C)c3ccc(C)cc3)c3ccccc32)cc1 (mixture of isomers)
Please list these compounds in decreasing order of Cmax. Your reply should list the labels following the order given in the request.
B, A, C, E, D
(B: 2460 ng/g, A: 218 ng/g, C: 143 ng/g, E: 53.2 ng/g, D: 15.3 ng/g)

###

- targetOrTestSystem: Orexin receptor type 2 (Homo sapiens)
- Sequence (O43614 whole entry): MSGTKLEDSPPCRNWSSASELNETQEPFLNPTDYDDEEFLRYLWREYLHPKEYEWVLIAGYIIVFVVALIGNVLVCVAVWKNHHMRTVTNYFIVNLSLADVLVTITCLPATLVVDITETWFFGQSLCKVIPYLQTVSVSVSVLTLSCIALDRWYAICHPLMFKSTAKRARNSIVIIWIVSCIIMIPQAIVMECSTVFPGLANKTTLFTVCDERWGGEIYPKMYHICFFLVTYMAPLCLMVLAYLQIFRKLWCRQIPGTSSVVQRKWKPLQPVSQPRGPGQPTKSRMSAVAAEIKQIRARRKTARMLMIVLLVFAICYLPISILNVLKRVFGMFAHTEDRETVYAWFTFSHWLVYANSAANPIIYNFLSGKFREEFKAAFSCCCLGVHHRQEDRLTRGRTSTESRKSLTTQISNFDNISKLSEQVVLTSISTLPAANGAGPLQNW
- procedureSummary: Agonist activity at human OX2R expressed in human HEK293 cells co-transfected with human Galphaq assessed as accumulation of inositol phosphate by scintillation counter analysis
pEC50: −log10 of the molar value.
Each entry below lists one item and its recorded pEC50 value.

Reference set (2 entries):
[
  {
    "compound": "Cc1ccc(CC(CNC(=O)CCCO)n2c(=N)n(Cc3ccc(C)cc3)c3ccccc32)cc1 (racemic)",
    "observed": "< 5.00"
  },
  {
    "compound": "Cc1ccc(CC(CNC(=O)Cc2ccccc2)n2c(=N)n(Cc3ccc(C)cc3)c3ccccc32)cc1 (racemic)",
    "observed": "< 5.00"
  }
]

Enter reported pEC50 observed with Orexin receptor type 2 (Homo sapiens) for Cc1ccc(CC(CNC(=O)Cc2ccncc2)n2c(=N)n(Cc3ccc(C)cc3)c3ccccc32)cc1 (racemic)
< 5.00
